Reference source for all entries: paper PMC9404054

- TARGET: 8-oxoguanine DNA glycosylase (OGG1) (UniProt O15527 1-345)
- Sequence (O15527 whole entry, the tested form may be a part): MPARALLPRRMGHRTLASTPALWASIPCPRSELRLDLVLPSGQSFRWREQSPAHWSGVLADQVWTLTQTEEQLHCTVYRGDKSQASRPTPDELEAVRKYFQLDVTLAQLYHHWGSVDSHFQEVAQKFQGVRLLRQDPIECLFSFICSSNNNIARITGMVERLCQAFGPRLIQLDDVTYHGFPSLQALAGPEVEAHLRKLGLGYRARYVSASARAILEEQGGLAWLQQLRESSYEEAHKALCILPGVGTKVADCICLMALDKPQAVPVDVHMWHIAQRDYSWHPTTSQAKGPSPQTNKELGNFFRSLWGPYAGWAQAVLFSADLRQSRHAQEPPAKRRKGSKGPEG
- PROTOCOL_SUMMARY: capillary electrophoresis (NECEEM); 0.2 uM aptamer, 5.0 uM OGG1, n=3; abstract gives range 1.71-2.64 uM for the top three candidates; CE in fused-silica capillary (75 um i.d. x 50.2 cm, 40 cm effective); borate reagents listed; 15 min incubation stated for the selection; buffer composition, pH and temperature not in the material
- CONDITION_INFO: protein: commercial; (library is FAM labelled)
QUANTITY: Kd (µM)
Give just the number in µM; leave the unit off.

Exam item: Return reported Kd; argument: OGG1-Apt 4 (ssDNA) DNA: AGCAGCACAGAGGTCAGATGGCGAAGCGTACCGGCTACCCAGTGACAGTCGCCGTGGGTCCCTATGCGTGCTACCGTGAA
Marked response: 2.8
